Just for reference, ChEMBL document CHEMBL2163218 is where these values come from.

- System: Human immunodeficiency virus 1
- testDetails: Antiviral activity against wild type HIV1 clade A isolated form HIV1 patient infected in HEK293 cells assessed as reduction in viral replication incubated for 48 hrs by luciferase reporter based assay
- Assay type: functional, organism-based
- conditionLabel: Human immunodeficiency virus 1, clade A, HEK293, 48 h
measuredAttribute: log10 EC50 (log10 of the value in nM)
On a log10 scale: recorded EC50, unit nM.

CCCCCN(C[C@@H](O)[C@H](Cc1ccccc1)NC(=O)OC[C@@H]1CCC(=O)N1)S(=O)(=O)c1ccc2ncsc2c1 :: 1.92

log10 EC50 recorded for this molecule, CC(C)CN(C[C@@H](O)[C@H](Cc1ccccc1)NC(=O)O[C@H]1CCOC1)S(=O)(=O)c1ccc(N)cc1 , is 0.41
